Data credit: paper PMC12169662

# TARGET OF ASSAY: recombinant APC/C (anaphase promoting complex/cyclosome) (UniProt Q9NYG5 1-84; Q9UJX6 1-822; Q9H1A4 1-1944; P30260 1-824)
# Sequence (P30260 whole entry, looked up, chain 1 of 4): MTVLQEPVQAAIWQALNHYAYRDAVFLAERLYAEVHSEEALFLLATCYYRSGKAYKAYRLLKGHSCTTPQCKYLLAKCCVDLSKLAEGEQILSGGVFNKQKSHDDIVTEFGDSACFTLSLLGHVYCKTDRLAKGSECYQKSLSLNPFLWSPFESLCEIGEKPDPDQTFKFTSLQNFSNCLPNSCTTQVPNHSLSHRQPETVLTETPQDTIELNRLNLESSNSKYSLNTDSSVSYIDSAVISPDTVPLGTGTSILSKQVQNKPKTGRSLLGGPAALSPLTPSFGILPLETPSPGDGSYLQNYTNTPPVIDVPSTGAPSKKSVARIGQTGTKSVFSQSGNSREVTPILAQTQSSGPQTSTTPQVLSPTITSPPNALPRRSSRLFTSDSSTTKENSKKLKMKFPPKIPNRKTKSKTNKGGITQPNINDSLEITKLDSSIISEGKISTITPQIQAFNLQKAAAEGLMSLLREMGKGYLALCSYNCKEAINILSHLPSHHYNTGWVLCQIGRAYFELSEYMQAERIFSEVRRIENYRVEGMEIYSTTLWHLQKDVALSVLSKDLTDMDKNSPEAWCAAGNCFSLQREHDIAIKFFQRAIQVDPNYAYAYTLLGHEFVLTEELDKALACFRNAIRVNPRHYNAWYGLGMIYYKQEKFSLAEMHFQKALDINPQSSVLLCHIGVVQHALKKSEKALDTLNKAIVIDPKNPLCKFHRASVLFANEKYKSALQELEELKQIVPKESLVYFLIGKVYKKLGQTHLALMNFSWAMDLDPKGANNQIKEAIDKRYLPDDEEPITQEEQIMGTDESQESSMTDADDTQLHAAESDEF
# Sequence (Q9H1A4 whole entry, looked up, chain 2 of 4): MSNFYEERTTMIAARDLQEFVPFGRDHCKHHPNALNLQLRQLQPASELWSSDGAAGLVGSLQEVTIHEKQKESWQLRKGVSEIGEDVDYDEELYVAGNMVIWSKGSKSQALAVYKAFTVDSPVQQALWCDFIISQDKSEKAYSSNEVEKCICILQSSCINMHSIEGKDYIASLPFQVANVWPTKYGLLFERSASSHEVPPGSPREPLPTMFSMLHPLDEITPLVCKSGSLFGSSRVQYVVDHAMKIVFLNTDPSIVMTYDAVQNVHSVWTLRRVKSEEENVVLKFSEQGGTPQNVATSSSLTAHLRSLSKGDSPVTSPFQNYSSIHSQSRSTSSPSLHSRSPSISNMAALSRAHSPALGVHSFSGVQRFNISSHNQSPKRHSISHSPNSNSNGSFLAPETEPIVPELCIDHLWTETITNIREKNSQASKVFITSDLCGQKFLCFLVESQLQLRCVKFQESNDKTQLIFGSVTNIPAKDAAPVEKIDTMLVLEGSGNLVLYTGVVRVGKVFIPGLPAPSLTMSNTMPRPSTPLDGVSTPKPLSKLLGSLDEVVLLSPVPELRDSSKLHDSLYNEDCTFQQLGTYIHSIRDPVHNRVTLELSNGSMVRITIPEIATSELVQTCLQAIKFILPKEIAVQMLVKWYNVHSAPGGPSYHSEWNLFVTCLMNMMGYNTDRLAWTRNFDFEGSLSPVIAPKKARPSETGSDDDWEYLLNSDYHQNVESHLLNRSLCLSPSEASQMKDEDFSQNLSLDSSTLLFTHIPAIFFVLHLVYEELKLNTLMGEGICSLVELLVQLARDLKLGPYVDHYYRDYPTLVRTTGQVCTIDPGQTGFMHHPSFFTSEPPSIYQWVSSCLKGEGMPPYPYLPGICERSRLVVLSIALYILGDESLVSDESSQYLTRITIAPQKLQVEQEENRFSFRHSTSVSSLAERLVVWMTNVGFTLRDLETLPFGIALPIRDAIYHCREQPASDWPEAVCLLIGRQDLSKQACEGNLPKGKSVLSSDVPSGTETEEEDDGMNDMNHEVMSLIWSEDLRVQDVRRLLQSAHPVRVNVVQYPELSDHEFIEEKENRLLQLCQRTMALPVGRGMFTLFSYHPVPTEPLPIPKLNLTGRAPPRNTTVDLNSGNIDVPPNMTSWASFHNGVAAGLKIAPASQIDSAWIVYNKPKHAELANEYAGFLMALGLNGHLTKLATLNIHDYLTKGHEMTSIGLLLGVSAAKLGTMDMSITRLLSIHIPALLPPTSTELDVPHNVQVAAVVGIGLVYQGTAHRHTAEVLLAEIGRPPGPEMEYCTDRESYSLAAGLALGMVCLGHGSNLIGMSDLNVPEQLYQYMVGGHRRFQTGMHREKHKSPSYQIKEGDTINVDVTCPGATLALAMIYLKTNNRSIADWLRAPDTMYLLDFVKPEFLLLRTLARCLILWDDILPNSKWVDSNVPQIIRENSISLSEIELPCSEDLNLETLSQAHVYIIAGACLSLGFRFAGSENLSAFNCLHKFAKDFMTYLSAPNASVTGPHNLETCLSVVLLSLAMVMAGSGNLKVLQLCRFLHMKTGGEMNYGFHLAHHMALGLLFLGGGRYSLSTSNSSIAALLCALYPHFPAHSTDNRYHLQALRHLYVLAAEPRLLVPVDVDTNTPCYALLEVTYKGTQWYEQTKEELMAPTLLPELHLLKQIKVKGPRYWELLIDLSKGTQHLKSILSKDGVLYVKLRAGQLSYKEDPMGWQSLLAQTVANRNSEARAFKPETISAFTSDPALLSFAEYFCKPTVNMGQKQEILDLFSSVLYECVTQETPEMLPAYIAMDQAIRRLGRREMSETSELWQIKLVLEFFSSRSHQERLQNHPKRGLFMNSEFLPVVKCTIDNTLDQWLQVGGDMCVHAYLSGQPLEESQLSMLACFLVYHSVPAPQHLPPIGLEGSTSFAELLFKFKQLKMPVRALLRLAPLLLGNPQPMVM
# Sequence (Q9UJX6 whole entry, looked up, chain 3 of 4): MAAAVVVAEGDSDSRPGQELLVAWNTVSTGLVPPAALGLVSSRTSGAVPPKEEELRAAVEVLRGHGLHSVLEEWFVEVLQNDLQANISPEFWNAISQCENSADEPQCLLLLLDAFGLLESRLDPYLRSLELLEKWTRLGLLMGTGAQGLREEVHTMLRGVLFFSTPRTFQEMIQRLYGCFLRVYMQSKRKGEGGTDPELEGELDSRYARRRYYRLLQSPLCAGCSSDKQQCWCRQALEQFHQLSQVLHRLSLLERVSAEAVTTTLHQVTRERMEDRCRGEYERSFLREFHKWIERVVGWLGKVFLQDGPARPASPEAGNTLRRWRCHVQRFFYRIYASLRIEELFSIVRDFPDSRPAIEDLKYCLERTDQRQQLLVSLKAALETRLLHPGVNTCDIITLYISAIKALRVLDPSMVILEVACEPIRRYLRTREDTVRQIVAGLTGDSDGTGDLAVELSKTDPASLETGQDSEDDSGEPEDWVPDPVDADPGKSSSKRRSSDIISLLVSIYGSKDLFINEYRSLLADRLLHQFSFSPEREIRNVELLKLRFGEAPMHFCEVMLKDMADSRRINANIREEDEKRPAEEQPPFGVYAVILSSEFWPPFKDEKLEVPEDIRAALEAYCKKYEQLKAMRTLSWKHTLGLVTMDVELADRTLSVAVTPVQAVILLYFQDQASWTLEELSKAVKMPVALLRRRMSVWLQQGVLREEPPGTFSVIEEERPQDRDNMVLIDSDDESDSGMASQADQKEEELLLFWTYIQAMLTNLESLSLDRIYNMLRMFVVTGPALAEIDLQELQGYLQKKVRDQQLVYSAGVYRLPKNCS
# Sequence (Q9NYG5 whole entry, looked up, chain 4 of 4): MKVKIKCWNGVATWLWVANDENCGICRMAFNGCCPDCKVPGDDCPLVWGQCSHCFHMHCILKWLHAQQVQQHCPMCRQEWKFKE
# ASSAY REMARKS: enzyme kinetics (in vitro APC/C ubiquitination assay); 20 nM recombinant APC/C, 340 nM CDC20, UBA1, UBE2C K119R, ubiquitin; securin titrated from 50 nM to 5 μM with and without H6; initial velocity; 30 °C, 30 mM HEPES pH 7.4, 175 mM NaCl, 8 mM MgCl2; model for noncompetitive inhibition
# TEST CONDITIONS: both partners purified
Bridge positions count the residues as written; N and C are the ends. Square brackets hold non-standard residues; d marks the D form. Ends that are not written are not given here. R8 = C=CCCCCCC[C@@](C)(N)C(=O)O; S5 = C=CCCC[C@](C)(N)C(=O)O
READOUT: pKi
Answers are plain numbers, as −log10 of the molar value.

### Prompt Which pKi is listed for EWW[R8]IKEIQR[S5]RRA (designed binder, staple 4-11) [H6] ?
### Response 5.30
